Sourced from the supplement of paper PMC9170038

- Tested on: MS2 coat protein
- Assay protocol: apparent KD of MS2 coat protein, switch OFF state (with FMN for OFF switches, without FMN for ON switches); designed switch direction (-1 OFF switch, 1 ON switch): -1; higher = weaker reporter binding
- Test parameters: FMN input: 0 or 200 uM; Eterna round: R93 (includes R88 designs)

Ordered residues	apparent KD of MS2 coat protein (nM)
AGCAAACAUGAGGAUCACCCAUGUUAGGAUAUGAACGAAAUAAAAUAAAAAUAAAAGUUCAGAAGGGACGAGCA [Mat - Exclusion 1 - Eli mod - D27]	37.1
AUCGAUCGAGGAUAUACAUGAGGAUCACCCAUGUAAAAAAAAAAAAAGUCCUCAGGACGUAGAAGGCGACGCAA [JR_Exc003_Sub401]	22.3
CUCUUGUCAGGAUAUUGAAGAAAAGAAAAGAAAGAAAAGAACAAGAAGGGACAUGAGGAUCACCCAUGUAAGAA [EteRNA is fun!]	60.7
GUCAGCUGAGGAUAUACAGGUGAGGCCGCAUAACAAAAUAUACAUGAGGAUCACCCAUGUAGAAGGCGGAAGAC [Soreramare]	47.6
AAAAUGUCAGGAUAUCUGGAUAGGAAAAAGAAAACCUAUCCAGAGAAGGGACAUGAGGAUCACCCAUGUAAAAA [JL cataway mod 3]	171
AAAAAUGGAGGAUAUACAUGAGGAUCACCCAUGUGUAAAAAAAAUUACACAAAAGAAAGUAGAAGGCCAUAAAG [Mat - Exclusion 3 - Mayanna mod - D108]	139
CACGUACAUGAGGAUCACCCAUGUUAGGAUAUGCCGGGUAAGAGAAAACAAAAAAUCAGCAGAAGGAACGAAAC [Bilbo Confounded 18 - Jieux - Exclusion 1]	28.5
AAAGAUACAGGAUAUACAUGAGGAUCACCCAUGUGGAAUCAAAAAUGGGAAAAAGAAAGUAGAAGGGUAUAAAA [Ex 3 May 38]	87.3
GGAUGUGAAGGAUAUACAUGAGGAUCACCCAUGUGAGAGAAAAAAGUGAGAAAGAAAAGUAGAAGGUCGUGUCG [salish99-ex3-86]	36.9
UCGUGGUCAGGAUAUACAUGAGGAUCACCCAUGUAAAAGAACACAAAGGAGAGACGACGUAGAAGGGACAAAUA [Erqugere]	42.1
AUGUAGGGAGGAUAUACAUAGAUACAGAUUCAUGUGGAACUACAUGAGGAUCACCCAUGUAGAAGGCCCUAAAA [Mat - Same state - Mayanna Mod - D125]	117
AAAAAGUGAGGAUAUCCAGAUAAAAAAACGAAAAAAAAUCUGGAGAAGGCACAUGAGGAUCACCCAUGUAUGAC [Ex 4 May 6]	38.2
AAAAAUGGAGGAUAUACAUGAGGAUCACCCAUGUGUAACUAUACUAAGCGCUCCUCACGUAGAAGGCCAAAAAA [Gilly Gone Silly 14 - Jieux - Exclusion 3]	31.4

----------
- Test system: MS2 coat protein
- Assay protocol: apparent KD of MS2 coat protein; designed switch direction (-1 OFF switch, 1 ON switch): -1; higher = weaker reporter binding
- Test parameters: input ligand: FMN 200 uM
Value kind: apparent KD of MS2 coat protein (nM)

Ordered residues	Value kind	Measured result
GGCAUGUAAGGAUAUGCCACUGAGUGCUUUGCGCUCAGUAAGCAGAAGGUACAUGAGGAUCACCCAUGUGAUAA [jl-ex4-4.54 ViennaUCT mod] (Eterna round: R97, puzzle: Exclusion 4)	apparent KD of MS2 coat protein	136
AGAUCCACCGAGGAUAUUGGAGUGAUAUCACUCUAAGAAGGCGGUACAUGAGGAUCACCCAUGUGAUACCCAGA [Eternabot (Original) Solution 15] (Eterna round: R97, puzzle: Exclusion 6)	apparent KD of MS2 coat protein	551
GUCGUGCGGCUUUGCUGUACGAGUACAUGAGGAUCACCCAUGUAGGAUAUGGUUCGUUUUGCGUGCUAGAAGGGCGUGCGUUUU [Excl-NG3-LRO16] (Eterna round: R96, puzzle: Exclusion NG 3)	apparent KD of MS2 coat protein	22.4
GGAGGAGAGUUAGGAUAUACAAGAAGAAUGUGAGUAGAAGGAACGGAACAUGAGGAUCACCCAUGUCCCAUGUGGAGGAGGAGG [Kawasakiqro] (Eterna round: R96, puzzle: Exclusion NG 1)	apparent KD of MS2 coat protein	46.2
GCUAGAGCAGGAUAUCUAGAUCCUCACAUGAGGAUCACCCAUGUAGUCGAAAGACUAAGAAGAGAAGGGCUCUAGC [Omei Ex5 E17] (Eterna round: R97, puzzle: Exclusion 5)	apparent KD of MS2 coat protein	133

----------
- Test system: K4 kissing-loop RNA reporter;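 further: bound reporter read as fluorescence of individual clusters on recovered sequencing chips by microscopy, with normalized cluster intensities fitted with a binding model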
- Assay protocol: apparent KD of K4 kissing-loop reporter; higher = weaker reporter binding
- Test parameters: Eterna round: R107; input ligand: none
Classify as follows. Reported apparent KD of K4 kissing-loop reporter greater than or equal to 200 nM: Satisfied. Reported apparent KD of K4 kissing-loop reporter below: Not satisfied.

Ordered residues	Label class
CGGAGUGAUGUUCCGUUAAUUAAUUAUUUACGAGGACCGGUACGGCCGCCACUCGAUUUUGCUUUUAUUUAAUGUUUGGAAAUUU [JR_SSTryptoA_Sub006]	Not satisfied
AGUAUAGAGUCGGCCGCCACUGGUUUUAUGUGUGUCAAAUCUGGAUCAAAGUGAUGUUUUGAGACUAGGACCGGGACCAUUGUUA [#06 K4 Tryptophan B Exclusion]	Not satisfied
UUAUUAUAUUGUAAUGAUAUAGAAACCGAAGGAGCGACAUAAAAGUCAGGUAGGUCGCGGUGUACUCAGUGAUGUUGAGAGUAUU [JR_SSArginiA_Sub013]	Not satisfied
UUCUAACACACCGAUACCAGAGCCCAGUGAUGUUGGGCCUAGGUCGGAUGCUCACUGACGCUCCCUUGGCAGCGGUGGGCUAACC [Arreisve]	Not satisfied
AAAUAAAUGGCGGCCGCCACUGAACGCCUCCGCGUGGGUAUAUAGUGAUGUUAUAUGGCCGCCAUCAGGACCGGGCCAAAUAAAA [#08 K4 Tryptophan B Same State]	Satisfied
UUUUAAAUGUCUGAUACCAGAGAAAAUAUAUGUAGUGAUGUUAUAUACAAAUUAAAUAAGCUCCCUUGGCAGCAGUAUUAAUUUU [AstrosExc-TheB#10]	Satisfied

----------
- Test system: MS2 coat protein
- Assay protocol: apparent KD of MS2 coat protein; designed switch direction (-1 OFF switch, 1 ON switch): -1; higher = weaker reporter binding
- Test parameters: input ligand: FMN 200 uM
Entries and their measured apparent KD of MS2 coat protein follow.

Ordered residues	apparent KD of MS2 coat protein [nM]
AGGUGCUUCUGGAGACAUGAGGAUCACCCAUGUCGAGUCAGCGAGGAUAUCGGUAAGGCAUGUGAUGAGAAGGCGCAGACCGAU [Ex NG3 #51] (Eterna round: R96, puzzle: Exclusion NG 3)	33.7
UCUCGUUGGCAAGGAUAUCCUACAUUGUUCUGGCCCGGGCAUGCUACAUGAGGAUCACCCAUGUGGGAGAAGGUGCGCCAUUGC [Design 24] (Eterna round: R96, puzzle: Exclusion NG 2)	80.9
AGAUGCUCAAGUCGACAUGAGGAUCACCCAUGUACAAUUAACGAGGAUAUCCGAGAUAAAUAAUAGGAGAAGGCGUGAUCAUGA [Mat - Exclusion NG 3 - Mod of JL - D54] (Eterna round: R96, puzzle: Exclusion NG 3)	66.2
UAAUUAGCAAGUAGAUCCGACAUGAGGAUCACCCAUGUUAUCUGAAAGAACGCAGAAUAAUUGUGAGCUCGUCUAAA [Sensor-V1 #2] (Eterna round: R97, puzzle: Sensor, turn-off variant 1)	144
UAUAUGUCAGGAUAUCGAUUAGUACGGGAUUCGGUACUGGUUGAGAAGGGACAUGAGGAUCACCCAUGUUUUUC [EX4 #69] (Eterna round: R97, puzzle: Exclusion 4)	284

----------
Entries and their measured apparent KD of MS2 coat protein follow.
- System: MS2 coat protein
- Assay protocol: apparent KD of MS2 coat protein; designed switch direction (-1 OFF switch, 1 ON switch): -1; higher = weaker reporter binding
- Test parameters: input ligand: FMN 200 uM

Ordered residues	apparent KD of MS2 coat protein, nM
AUAACGUAGCGAGGAUAUACGCGAGAUCGUUGCGUAGAAGGUGUAUCGUUGGACUUGAGGAUCACCCAAGUGAUGAGUCCUUCC [Mutated MS2 EX1.20] (Eterna round: R96, puzzle: Exclusion NG 1)	43.8
GCUCCUCCUGUUAGGAUAUGCUUCGGGCUUCCGCAGCAGAAGGAACAUGAGGAUCACCCAUGUCAAAUAAAAUC [Brourd's mod of Ex.4 - Mod Inxebexe (Scored 85 R3.2)] (Eterna round: R97, puzzle: Brourd's mod of Exclusion 4)	223
CUAAAUCAUGUAGGAUAUGCGUGGCAAAGCUAUGCAGAAGGACAUGAGGAUCACCCAUGUCAUUCCGUCUGCGUACAGACGGGA [Mat - Exclusion NG 1 - Mod of JL - D49] (Eterna round: R96, puzzle: Exclusion NG 1)	187
UUUUCAUAUGAAGGAUAUACUUAACAUGAGGAUCACCCAUGUGGUGUUGUGAGUGAGUGAGUUUAGUAGAAGGUCAAGUAUUUU [JMF's solution 48] (Eterna round: R96, puzzle: Exclusion NG 2)	805
